Assay: Changes in MIC under different conditions: agar MIC
Assay type: cell-based
Test Conditions: strain not given
Quantity Kind: Agar MIC (µg/mL)
The answer is to be given in µg/mL; state only the numeric part.

Worked examples, 3 compounds total:
Input Smiles | Unit Spec | Recorded Measurement
CC(=O)NC[C@H]1CN(c2ccc(N3CCN(C(=O)c4ccoc4)CC3)c(F)c2)C(=O)O1 | µg/mL | 1
CN[C@H](CC(C)C)C(=O)N[C@H]1C(=O)N[C@@H](CC(N)=O)C(=O)N[C@H]2C(=O)N[C@H]3C(=O)N[C@H](C(=O)N[C@H](C(=O)O)c4cc(O)cc(O)c4-c4cc3ccc4O)[C@H](O)c3ccc(c(Cl)c3)Oc3cc2cc(c3O[C@@H]2O[C@H](CO)[C@@H](O)[C@H](O)[C@H]2O[C@H]2C[C@](C)(N)[C@H](O)[C@H](C)O2)Oc2ccc(cc2Cl)[C@H]1O | µg/mL | 1
CC(=O)NC[C@H]1CN(c2ccc(N3CCN(Cc4ccc([N+](=O)[O-])o4)CC3)c(F)c2)C(=O)O1.Cl | µg/mL | 2

// query Fill in the blank: the reported Agar MIC of CC(=O)NC[C@H]1CN(c2ccc(N3CCOCC3)c(F)c2)C(=O)O1 is ____.
// result 2
